Reported values of pIC50 for individual entries
target: Isocitrate dehydrogenase [NADP] cytoplasmic (Homo sapiens); assay: Inhibition of wild-type IDH1 (unknown origin) in presence of sodium(D)-isocitrate and NADP+
Sequence (O75874 whole entry): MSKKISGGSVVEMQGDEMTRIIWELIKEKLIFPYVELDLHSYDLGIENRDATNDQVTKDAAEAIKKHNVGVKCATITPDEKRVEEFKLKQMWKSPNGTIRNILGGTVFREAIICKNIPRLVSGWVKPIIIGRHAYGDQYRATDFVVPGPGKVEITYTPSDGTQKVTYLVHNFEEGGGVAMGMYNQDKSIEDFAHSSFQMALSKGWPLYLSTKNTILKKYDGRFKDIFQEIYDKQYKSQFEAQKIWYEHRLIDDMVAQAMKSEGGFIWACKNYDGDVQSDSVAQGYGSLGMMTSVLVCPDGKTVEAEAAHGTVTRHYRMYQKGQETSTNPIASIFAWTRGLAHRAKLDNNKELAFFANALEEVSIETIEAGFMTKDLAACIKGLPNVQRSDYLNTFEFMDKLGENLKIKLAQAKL
pIC50: −log10 of the molar value.

1. C[C@]12C(=O)C=CCC1=CC[C@@H]1[C@@H]2CC[C@]2(O)C(=O)O[C@@]3(C)[C@H]4C[C@]5(C)[C@@H](CO[C@@]16O[C@@]32[C@H]5C6=O)C(=O)O4 :: < 3.70

# evaluate next
Entry C[C@@]12C[C@H]3OC(=O)[C@@H]1CO[C@]14O[C@@]5([C@H]2C1=O)[C@@]3(C)OC(=O)[C@@]5(O)CC[C@H]1[C@H]4C[C@H]2O[C@]23CC=CC(=O)[C@]13C , Isocitrate dehydrogenase [NADP] cytoplasmic (Homo sapiens) data, pIC50 value: < 3.70

---

system: HT-1080; experiment: Antiproliferative activity against human HT-1080 cells assessed as reduction in cell proliferation measured after 48 hrs by CCK8 assay; assay type: functional, cell-based; settings: HT-1080, 48 h
Quantity Measured: IC50 (nM)
Use nM as the unit, but write only the number.

The value of IC50 measured for the compound C[C@@]12C[C@H]3OC(=O)[C@@H]1CO[C@]14O[C@@]5([C@H]2C1=O)[C@@]3(C)OC(=O)[C@@]5(O)CC[C@H]1[C@H]4C[C@H]2O[C@]23CC=CC(=O)[C@]13C turned out to be 2410

Recorded values, source ChEMBL document CHEMBL4706709.
